B1: Osa-1-4 twister ribozyme (parent)
chain: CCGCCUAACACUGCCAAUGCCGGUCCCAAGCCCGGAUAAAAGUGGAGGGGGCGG

# Variants of: B1
# assayDetails: self-cleavage, relative activity (ratio to wild type); higher = more cleavage; co-transcriptional
Note: every record was labeled by where its self-cleavage sits among class A: < 0.04; class B: ≥ 0.04 and < 0.2; class C: ≥ 0.2

Examples from the recorded data:
G30U G47C	class A
G13U G42C	class A
G35A U18C	class C
A36G C20U	class C

Query: # classify by self-cleavage band: A29C G22A
Response: class B

Query: # bin lookup: classify A36C G30U by its self-cleavage
Response: class A

Query: Note: place this variant into its band. Item: C9G G35A
Response: class C

Query: Given U12A U24G , name the class its self-cleavage places it in.
Response: class A

Query: Looking at C25G G35U , which class would you pick?
Response: class B
